- Tested on: L1210 leukemia ip in BDF1 mice, survival T/C
- ASSAY OVERVIEW: NCI In Vivo Anticancer Drug Screen. Data for tumor model L1210 Leukemia (intraperitoneal) in B6D2F1 (BDF1) mice
- STATED CONDITIONS: endpoint: mean survival time; dose: 200.0 mg/kg/injection; schedule: Q01DX009 (ip); vehicle: saline
Toxic doses and inconclusive results are not listed. No stated cut-off is given here; in the data, active means T/C of 150% or more; inactive means T/C below 125%.
Outcomes: y for active, n for inactive

COMPOUND	ASSAY SYSTEM	LABEL VALUE
C#CCOCCC(C(=O)OCC)C(=O)OCC	L1210 leukemia ip in BDF1 mice, survival T/C	n
COC(=O)c1cn[nH]c1/N=N/N(C)CCO	L1210 leukemia ip in BDF1 mice, survival T/C	y
CCCOC(CN)C(Cl)(Cl)Cl (stereo not given)	L1210 leukemia ip in BDF1 mice, survival T/C	n
CCN(CC)CCNCCO	L1210 leukemia ip in BDF1 mice, survival T/C	n
C1CCC(=[N+]2CCCC2)CC1	L1210 leukemia ip in BDF1 mice, survival T/C	n
